# Experiment: Therapeutic index, ratio of CC50 for human C8166 cells to EC50 for HIV-1 3B
# Format: cell-based
# Setup Conditions: read-out: Ratio CC50/EC50
Consider the following compounds; for each one, report its selectivity ratio.
Give bare numbers.

Solved entries:
O=[N+]([O-])c1ccc2c(ccn2-c2ccccc2[N+](=O)[O-])c1 24.6
O=[N+]([O-])c1ccccc1-n1ccc2ccccc21 24.6

Switching to the query record.
Quick check: selectivity ratio of Cc1cn(-c2ccc([N+](=O)[O-])cc2)c2ccccc12 ?
24.6

====

# Experiment: Cytotoxicity against human TZM-bl cells
# Type: cell-based
Property Name: CC50 (µM)
Give bare numbers, in µM.

# lookup: CC50 of CCOC(=O)C(O)(c1c[nH]c2ccc([N+](=O)[O-])cc12)C(F)(F)F (stereo unspecified)
211

====

# Experiment: Inhibition of HIV-1 integrase LEDGF/p75 (unknown origin) interaction
# Design: species or system Human immunodeficiency virus 1
Property Name: IC50 (µM)
Give bare numbers, in µM.

Fill blank: measured IC50 of the compound COc1cccc2c1c(C(=O)/C=C(\O)C(=O)O)cn2Cc1ccc(F)cc1 is ____.
36

====

# Tested On: Human immunodeficiency virus type 1 integrase (Human immunodeficiency virus 1, UniProt Q7ZJM1)
# Sequence (Q7ZJM1 whole entry): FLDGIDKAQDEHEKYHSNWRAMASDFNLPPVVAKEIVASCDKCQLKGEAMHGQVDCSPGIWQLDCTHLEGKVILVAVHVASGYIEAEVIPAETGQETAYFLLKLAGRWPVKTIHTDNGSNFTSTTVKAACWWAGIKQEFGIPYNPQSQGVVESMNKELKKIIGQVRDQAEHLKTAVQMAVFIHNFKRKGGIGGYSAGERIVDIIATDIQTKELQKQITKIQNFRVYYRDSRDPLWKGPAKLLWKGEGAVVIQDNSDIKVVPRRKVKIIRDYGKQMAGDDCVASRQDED
# Experiment: Inhibition of HIV-1 integrase
Property Name: IC50 (µM)
Give bare numbers, in µM.

Looking for the measured IC50 of Cc1cc(C)cc(Cn2cc(C(=O)/C=C(\O)C(=O)O)c3c(O)cccc32)c1 , can you help?
3.5
